- SUBJECT_OF_TEST: human sodium glucose co-transporter 2 (Homo sapiens (Human))
- Sequence (P31639 whole entry): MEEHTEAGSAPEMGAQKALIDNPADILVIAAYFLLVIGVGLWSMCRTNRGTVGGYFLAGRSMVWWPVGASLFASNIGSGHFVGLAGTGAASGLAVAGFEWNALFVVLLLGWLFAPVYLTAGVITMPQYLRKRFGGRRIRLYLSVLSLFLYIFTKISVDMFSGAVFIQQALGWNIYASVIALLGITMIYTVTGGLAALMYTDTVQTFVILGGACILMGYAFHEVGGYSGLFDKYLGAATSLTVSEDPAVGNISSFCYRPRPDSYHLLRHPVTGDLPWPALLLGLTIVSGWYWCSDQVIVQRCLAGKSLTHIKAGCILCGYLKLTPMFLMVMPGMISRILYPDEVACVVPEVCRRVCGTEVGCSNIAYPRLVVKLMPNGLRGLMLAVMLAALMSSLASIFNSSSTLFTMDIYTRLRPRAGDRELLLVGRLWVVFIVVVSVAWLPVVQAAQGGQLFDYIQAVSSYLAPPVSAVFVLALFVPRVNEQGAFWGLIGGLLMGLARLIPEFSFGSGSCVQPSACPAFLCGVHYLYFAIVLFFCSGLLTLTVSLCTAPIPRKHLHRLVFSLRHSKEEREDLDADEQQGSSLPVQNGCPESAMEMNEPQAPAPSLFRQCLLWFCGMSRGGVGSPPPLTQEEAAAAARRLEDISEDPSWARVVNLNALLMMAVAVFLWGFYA
- TEST_METHOD_NOTES: SGLT-2 assay: 14C-AMG uptake in CHO-hSGLT2 or HEK-hSGLT2 cells
- Format: cell-based
- APPLIED_CONDITIONS: n = 1-4, cells stably transfected with hSGLT2, read-out: SGLT2 IC50 nM (n = 1-4)
Threshold check on IC50: strictly below 4 nM is 1.0; on or above 4 nM is 0.0.

Q) Input OC[C@H]1O[C@@H](c2ccc(C3CC3)c(Cc3ccc4c(c3)NCCO4)c2)[C@H](O)[C@@H](O)[C@@H]1O [Example 65] ; condition: IC50 strictly below 4 nM. Does it hold?
A) 1.0

Q) Input CC1(C)Oc2ccc(Cc3cc([C@@H]4O[C@H](CO)[C@@H](O)[C@H](O)[C@H]4O)ccc3Cl)cc2NC1=O [Example 46] ; condition: IC50 strictly below 4 nM. Does it hold?
A) 0.0

Q) Input CCN1CCOc2ccc(Cc3cc([C@@H]4O[C@H](CO)[C@@H](O)[C@H](O)[C@H]4O)ccc3Cl)cc21 [Example 9] ; condition: IC50 strictly below 4 nM. Does it hold?
A) 0.0

Q) Input COc1ccc([C@@H]2O[C@H](CO)[C@@H](O)[C@H](O)[C@H]2O)cc1Cc1ccc2c(c1)OCCO2 [Example 25] ; condition: IC50 strictly below 4 nM. Does it hold?
A) 1.0

Q) Input CC(C)c1ccc([C@@H]2O[C@H](CO)[C@@H](O)[C@H](O)[C@H]2O)cc1Cc1ccc2c(c1)NCCC2 [Example 71] ; condition: IC50 strictly below 4 nM. Does it hold?
A) 1.0

Q) Input CN1CCOc2cc(Cc3cc([C@@H]4O[C@H](CO)[C@@H](O)[C@H](O)[C@H]4O)ccc3Cl)ccc21 [Example 1] ; condition: IC50 strictly below 4 nM. Does it hold?
A) 1.0

Provenance of the data: patent USRE49080E1
